- Test system: TK-10 renal
- assay.procedure: NCI-60 one-dose screen, 48 h (100 = growth as untreated, 0 = no growth, -100 = all killed)
- condition.description: 10 µM unless noted
The panel holds about 83,000 compounds, 20% with a hit somewhere; the sample as a whole holds those more often.
Label rule, in plain words: growth of 70% and up is Satisfied, under 70% is Not satisfied.

Here are 2 molecules together with their reported answers.
COc1cc(CNS(=O)(=O)c2ccc(C)cc2)ccc1OCc1cn(-c2ccc(Br)cc2)nn1 : Satisfied
O=C(Nn1c2c(sc1=NCc1ccccc1)C(=O)c1ccccc1C2=O)c1cc2ccc1CCc1ccc(cc1)CC2 : Satisfied

Challenge: Identify whether the reported growth of the following molecule is 70% or greater: COC(=O)c1n[nH]c2ccc3nc(-c4cn[nH]c4C(F)(F)F)c4c(c3c12)CCCC4
Response given: Not satisfied

Challenge: Identify whether the reported growth of the following molecule is 70% or greater: C=CCn1cc(-c2nc3ccccc3s2)c2cc(-c3ccc4c5c(cccc35)C(=O)N(N)C4=O)ccc21
Response given: Satisfied

Challenge: Identify whether the reported growth of the following molecule is 70% or greater: COc1cc(CNS(=O)(=O)c2ccc(C)cc2)ccc1OCc1cn(-c2ccc(F)cc2)nn1
Response given: Satisfied

---

- System: LOX IMVI melanoma
- assay.procedure: NCI-60 one-dose screen, 48 h (100 = growth as untreated, 0 = no growth, -100 = all killed)
- condition.description: 10 µM unless noted
This is part of a sample that, as a whole, favours compounds with a hit. Of some 83,000 tested, about 20% had one in any assay.
Label rule, in plain words: growth of 60% and up is satisfied, under 60% is not satisfied.

Here are 5 compounds together with their reported answers.
Cc1cccc(Cl)c1NC(=O)c1ccc2nc(NC(=O)NCCN(C)C)sc2c1 : satisfied
CCNc1nc(-c2ccc(Cl)c(OC)c2)c(-c2ccnc(NCCCNS(=O)(=O)c3ccc(Cl)cc3)n2)s1 : not satisfied
O=C1C(Cl)=C(Nc2ccc(O)cc2)C(=O)N1Cc1ccc(Cl)cc1 : not satisfied
Cn1cc(-c2nonc2-c2c[nH]c3ccc(Br)cc23)c2cc(Br)ccc21 : not satisfied
CC(=O)N(N=Nc1ccccc1)c1cccc2ccccc12 : satisfied

Challenge: Identify whether the reported growth of the following compound is 60% or greater: CN(C)CCCn1c2c(c3ncccc3c1=O)C(=O)c1ccccc1-2
Response given: not satisfied

Challenge: Identify whether the reported growth of the following compound is 60% or greater: N=C(N)c1ccc(-c2ccc(-c3cc(Cl)cc(Cl)c3)o2)o1
Response given: not satisfied

Challenge: Identify whether the reported growth of the following compound is 60% or greater: CCCC(=O)NC(c1ccc2c(c1)OCO2)c1ccc2cccnc2c1O (stereo not given)
Response given: not satisfied

Challenge: Identify whether the reported growth of the following compound is 60% or greater: O=C1/C(=C/c2ccc(F)cc2)COc2ccc(O)cc21
Response given: not satisfied

---

- Test system: MALME-3M melanoma
- assay.procedure: NCI-60 one-dose screen, 48 h (100 = growth as untreated, 0 = no growth, -100 = all killed)
- condition.description: 10 µM unless noted
About 83,000 compounds went through this panel and 20% of them were active in at least one assay; those are over-represented in the sample as a whole.
Measured growth accompanies every entry in the list below.
All answers are understood in %, so give the number only.

Challenge: Observed growth on MALME-3M melanoma for COC1C[C@H](O[C@@H]2C[C@H](O[C@@H]3C[C@H](O[C@@H]4C(=O)c5c(cc6cc(O[C@H]7C[C@@H](O[C@H]8C[C@@H](O)[C@H](O)C(C)O8)[C@H](O)C(C)O7)c(C)c(O)c6c5O)C[C@H]4C(OC)C(=O)[C@@H](O)[C@@H](C)O)OC(C)[C@H]3O)OC(C)[C@@H]2O)OC(C)[C@@H]1O (stereo partly specified) , please.
Response given: -59.4

Challenge: Observed growth on MALME-3M melanoma for CCOP(=O)(OCC)c1nc(-c2ccccc2)oc1NCc1cccnc1 , please.
Response given: 100

Challenge: Observed growth on MALME-3M melanoma for O=Cc1ccc([N+](=O)[O-])s1 , please.
Response given: 115

Challenge: Observed growth on MALME-3M melanoma for COc1ccc(C(=O)Nc2cccc(C3CC(=O)c4c(cc(OC)c(OC)c4OC)O3)c2)cc1 (stereo unspecified) , please.
Response given: 31.4

Challenge: Observed growth on MALME-3M melanoma for C=C(C)[C@@H]1CC[C@]2(C(=O)O)CC[C@]3(C)[C@H](CC[C@@H]4[C@@]5(C)C[C@@H](Cc6cn(CCO[C@@H]7O[C@H](COC(C)=O)[C@H](OC(C)=O)[C@H](OC(C)=O)[C@H]7OC(C)=O)nn6)[C@H](O)C(C)(C)[C@@H]5CC[C@]43C)[C@@H]12 , please.
Response given: 77.7

Challenge: Observed growth on MALME-3M melanoma for Cc1cccc2c1NC(=O)C2(c1ccc(O)cc1)c1ccc(O)cc1 , please.
Response given: 93.1

---

- System: EKVX NSCLC
- assay.procedure: NCI-60 one-dose screen, 48 h
- condition.description: 10 µM unless noted
This is part of a sample that, as a whole, favours compounds with a hit. Of some 83,000 tested, about 20% had one in any assay. Activity calls are given as the source filed them. The calls were made as follows: active = growth percent below 10; inactive = the rest.
Outcome field: choose from TRUE (active), FALSE (inactive)

Here are 3 compounds together with their reported answers.
C=C(C)[C@@H]1CC[C@]2(C)[C@H](CC=C3[C@@H]4[C@H](C)[C@@H](C)CC[C@]4(CO)CC[C@]32C)[C@@]1(C)CCCN : FALSE
CCN(CC)CCNC(=O)c1cn2ncnc(Oc3ccc(NC(=O)Nc4ccc(Cl)c(C(F)(F)F)c4)c(F)c3)c2c1C : FALSE
COc1ccc(-c2nc3c(c(-c4ccccc4)nn3-c3ccccc3)c(-c3ccc(N4CCOCC4)cc3)c2C#N)cc1 : FALSE

Challenge: Which outcome was entered for the compound Nc1ncnc2c1N=C(c1ccc(Cl)cc1)CC(c1ccc3c(c1)OCO3)N2 (stereo not drawn) in this test?
Response given: FALSE

Challenge: Which outcome was entered for the compound C=CCn1cc(-c2nc3ccccc3s2)c2cc(-c3ccc4c5c(cccc35)C(=O)N(N)C4=O)ccc21 in this test?
Response given: FALSE

Challenge: Which outcome was entered for the compound CCOC(=O)c1cn2ncnc(Oc3ccc(NC(=O)NC4CCCCC4)c(Cl)c3)c2c1C in this test?
Response given: FALSE

Challenge: Which outcome was entered for the compound CC(=O)[C@@H]1CCC=C2CC[C@]3(C)[C@@H](CC[C@@H]4[C@@]5(C)CCCNC(C)(C)[C@@H]5CC[C@]43C)[C@H]21 in this test?
Response given: TRUE

Challenge: Which outcome was entered for the compound N=C(N)c1ccc(-c2ccc(-c3ccc(Cl)cc3)s2)nc1 in this test?
Response given: FALSE

---

- Test system: A498 renal
- assay.procedure: NCI-60 one-dose screen, 48 h (100 = growth as untreated, 0 = no growth, -100 = all killed)
- condition.description: 10 µM unless noted
About 83,000 compounds went through this panel and 20% of them were active in at least one assay; those are over-represented in the sample as a whole.
Label rule, in plain words: growth of 90% and up is Criterion met, under 90% is Criterion not met.

Here are 10 molecules together with their reported answers.
CCn1c(=S)[nH]c2c(=O)n(C)c(=O)n(C)c21 : Criterion met
O=C(Nc1ncc(Cc2ccc(Cl)c(C(F)(F)F)c2)s1)c1ccc2nnsc2c1 : Criterion not met
O=C(CCc1nnc(Cn2cnc3nc[nH]c3c2=O)o1)c1nc2ncccc2[nH]1 : Criterion met
Cn1c(=O)c2[nH]c(N/N=C/c3ccccc3Br)nc2n(C)c1=O : Criterion met
CC[C@]12C=CCN3CC[C@@]4(c5cc(NC(=O)CCC(=O)OCc6cn(Cc7ccc(F)cc7)nn6)c(OC)cc5N(C)[C@H]4[C@@](O)(C(=O)OC)[C@@H]1OC(C)=O)[C@@H]32 : Criterion met
CN(C)CC(=O)Nc1ccc2ncnc(Nc3ccc(Oc4cccc(C(F)(F)F)c4)c(Cl)c3)c2c1 : Criterion not met
COc1ccc2nc(NC(=O)CSc3nnc4n3S(=O)(=O)c3ccccc3N4C)sc2c1 : Criterion met
COc1ccc2[nH]cc(-c3nc(-c4cn(C)c5c(Cl)nccc45)cs3)c2c1 : Criterion not met
Cc1ccc(-c2nn(-c3ccccc3)cc2C=C2C(=O)ON=C2C(C)C)cc1 : Criterion not met
CN(C)CCCC1(c2ccc(F)cc2)OCc2cc(-c3cncc4ccccc34)ccc21 (stereo not given) : Criterion not met

Challenge: Identify whether the reported growth of the following molecule is 90% or greater: O=C1Nc2ccccc2/C1=C\c1nc(-c2ccccc2)n2ccccc12
Response given: Criterion met

Challenge: Identify whether the reported growth of the following molecule is 90% or greater: CCCCC(=O)c1ccco1
Response given: Criterion not met

Challenge: Identify whether the reported growth of the following molecule is 90% or greater: C[C@]12CC[C@@H]3c4ccc(O)c([N+](=O)[O-])c4CC[C@H]3[C@@H]1CCC2=O
Response given: Criterion met

Challenge: Identify whether the reported growth of the following molecule is 90% or greater: O=C(CN1C(=O)CCC1=O)Nc1ncc(Cc2ccc(F)cc2)s1
Response given: Criterion met

Challenge: Identify whether the reported growth of the following molecule is 90% or greater: CCOC(=O)c1cc2c(=O)oc3ccccc3c2oc1=O
Response given: Criterion met

Challenge: Identify whether the reported growth of the following molecule is 90% or greater: CC(C)(C)n1cc(-c2ccnc(NCCNS(=O)(=O)c3cccc4ccccc34)c2)c(-c2cccc(F)c2)n1
Response given: Criterion not met

Challenge: Identify whether the reported growth of the following molecule is 90% or greater: Cn1cc(-c2csc(-c3c[nH]c4ccc(Br)cc34)n2)c2cnccc21
Response given: Criterion not met

Challenge: Identify whether the reported growth of the following molecule is 90% or greater: O=C(Nc1cc(Cl)ccc1O)c1ccc(Nc2ccnc(C(F)(F)F)c2)cc1
Response given: Criterion not met

# credit: PubChem BioAssay (NCI)
